tested on: OVCAR5; test: drug sensitivity score (DSS) from 5-point dose-response viability curve (DSS (area-under-curve based score)); higher = more sensitive (stronger growth inhibition or killing); extreme values may be limits of the assay; details: exposure time: 72 h; concentration range: 5 concentrations over 10,000-fold range

>  <test_smiles>
CC1(C)C(C(=O)Nc2ccc(S(=O)(=O)c3ccc(NC(=O)C4C(C)(C)C4(C)C)cc3)cc2)C1(C)C

>  <drug sensitivity score>
2.1

$$$$
>  <test_smiles>
CN(C)CCCOc1ccc(-c2ccc3ncc4c(c3c2)n(C2CCOCC2)c(=O)n4C)cn1

>  <drug sensitivity score>
1.4

$$$$
>  <test_smiles>
CCC1=C[C@@H]2CN(C1)Cc1c([nH]c3ccccc13)[C@@](C(=O)OC)(c1cc3c(cc1OC)N(C)[C@H]1[C@@](O)(C(=O)OC)[C@H](OC(C)=O)[C@]4(CC)C=CCN5CC[C@]31[C@@H]54)C2

>  <drug sensitivity score>
19.5

$$$$
>  <test_smiles>
CCCCCCCCc1ccc(CCC(N)(CO)CO)cc1

>  <drug sensitivity score>
6.4

$$$$

====

test system: OV90; assay: drug sensitivity score (DSS) from 5-point dose-response viability curve (DSS (area-under-curve based score)); higher = more sensitive (stronger growth inhibition or killing); extreme values may be limits of the assay; conditions: exposure time: 72 h; concentration range: 5 concentrations over 10,000-fold range

>  <test_smiles>
CCS(=O)(=O)Nc1ccc(Oc2ccc(F)cc2F)c(-c2cn(C)c(=O)c3[nH]ccc23)c1

>  <drug sensitivity score>
22.1

$$$$
>  <test_smiles>
O=C(CCCCCCNC(=O)c1cnc(N(c2ccccc2)c2ccccc2)nc1)NO

>  <drug sensitivity score>
6

$$$$
>  <test_smiles>
CCOC(=O)C1=CCCC[C@H]1S(=O)(=O)Nc1ccc(F)cc1Cl

>  <drug sensitivity score>
0

$$$$
>  <test_smiles>
COc1cccc(-c2ccc(NC(=O)C3=C(C(=O)O)CCC3)c(F)c2)c1

>  <drug sensitivity score>
0

$$$$

====

Listed below: drug sensitivity score values for each entry.
tested on: Ovsaho; test: drug sensitivity score (DSS) from 5-point dose-response viability curve (DSS (area-under-curve based score)); higher = more sensitive (stronger growth inhibition or killing); extreme values may be limits of the assay; settings: exposure time: 72 h; concentration range: 5 concentrations over 10,000-fold range

>  <molecule>
CN1CCN(CCOc2cc(OC3CCOCC3)c3c(Nc4c(Cl)ccc5c4OCO5)ncnc3c2)CC1

>  <drug sensitivity score>
7

$$$$
>  <molecule>
O=C(Nc1ccncc1)C(=O)c1cn(Cc2ccc(Cl)cc2)c2ccccc12

>  <drug sensitivity score>
7.9

$$$$
>  <molecule>
CC[C@H](CC#N)OC(=O)N[C@@H](C)c1cccc(NC(=O)Nc2ccc(-c3cnco3)c(OC)c2)c1

>  <drug sensitivity score>
9.5

$$$$
>  <molecule>
CN1CCN(C2CCN(C(=O)Nc3cc(Oc4ccc(NC(=O)C5(C(=O)Nc6ccc(F)cc6)CC5)c(F)c4)ccn3)CC2)CC1

>  <drug sensitivity score>
0

$$$$
>  <molecule>
CC(C)C(=O)Nc1ccc([N+](=O)[O-])c(C(F)(F)F)c1 [Flutamide]

>  <drug sensitivity score>
0

$$$$
>  <molecule>
CCN1CCN(Cc2ccc(Nc3ncc(F)c(-c4cc(F)c5nc(C)n(C(C)C)c5c4)n3)nc2)CC1

>  <drug sensitivity score>
3.2

$$$$
>  <molecule>
COc1ccc(C[C@H](NC(=O)[C@H](C)NC(=O)CN2CCOCC2)C(=O)N[C@@H](Cc2ccccc2)C(=O)C2(C)CO2)cc1 (stereo in doubt)

>  <drug sensitivity score>
19.6

$$$$
